Recorded values, source patent US7217409B2.

So I've got a bunch of compounds here, and I need their Total Emitted Ex-Device values.
assay: Emitted dose and fine particle mass by Anderson Cascade Impactor stack; format: physicochemical; conditions: salmeterol xinafoate in HFA 134a, 25 μg per actuation, 10% w/w surfactant compound, aluminum canisters; beginning of use; mean of two determinations
Give bare numbers, in µg.

For every item below, please supply its Total Emitted Ex-Device.
1. COCCOCCOCCOCCOCCOCCOCC(=O)O [Example 2]
2. O=C(O)COCCOCCOCCOCCOCCOCCOCC(F)(F)F [Example 5]
3. O=C(O)COCCOCCOCC(F)(F)F [Example 6]

1. 18.8
2. 19.4
3. 17.9

Quick one: Total Emitted Ex-Device of COCCOCCOCCOCCOCCOCCOCCOCCOCCOCC(=O)O [Example 7] ?
18.4

* * *

So I've got a bunch of molecules here, and I need their % FPM values.
test: Emitted dose and fine particle mass by Anderson Cascade Impactor stack; assay type: physicochemical; details: salmeterol xinafoate in HFA 134a, 25 μg per actuation, 10% w/w surfactant compound, aluminum canisters; beginning of use; mean of two determinations
One number for each entry, in %.

Record excerpt, results attached:
[[record]]
molecule = "COCCOCCOCCOCCOCCOCCOCC(=O)O [Example 2]"
quantity = "% FPM"
measure_unit = "%"
value = 38.8

[[record]]
molecule = "O=C(O)COCCOCCOCCOCCOCCOCCOCC(F)(F)F [Example 5]"
quantity = "% FPM"
measure_unit = "%"
value = 37.2

[[record]]
molecule = "O=C(O)COCCOCCOCC(F)(F)F [Example 6]"
quantity = "% FPM"
measure_unit = "%"
value = 33.2


Quick one: % FPM of COCCOCCOCCOCCOCCOCCOCCOCCOCCOCC(=O)O [Example 7] ?
38.7

* * *

So I've got a bunch of compounds here, and I need their Mean Length values.
test: Mean particle size of salmeterol xinafoate/HFA 134a suspension by image analysis (Galai CIS-100 particle size analyser); assay type: physicochemical; settings: salmeterol xinafoate in HFA 134a, 25 μg per actuation, 10% w/w (relative to drug) of surfactant compound, crimped glass bottles; equivalent diameter; average of 4 determinations
One number for each entry, in μm.

For every item below, please supply its Mean Length.
1. O=C(O)COCCOCCOCC(F)(F)F
2. COCCOCCOCCOCCOCCOCCOCCOCCOCCOCC(=O)O

1. 23.7
2. 28.6

For every item below, please supply its Mean Length.
1. COCCOCCOCCOCCOCCOCCOCC(=O)O
2. O=C(O)COCCOCCOCCOCCOCCOCCOCC(F)(F)F

1. 27.1
2. 23.8

* * *

So I've got a bunch of compounds here, and I need their FPM (fine particle mass, sum of stages 3 to 5) values.
assay: Emitted dose and fine particle mass by Anderson Cascade Impactor stack; assay type: physicochemical; details: salmeterol xinafoate in HFA 134a, 25 μg per actuation, 10% w/w surfactant compound, aluminum canisters; beginning of use; mean of two determinations

Record excerpt, results attached:
[[record]]
structure = "COCCOCCOCCOCCOCCOCCOCCOCCOCCOCC(=O)O"
value = "8.5 µg"

[[record]]
structure = "O=C(O)COCCOCCOCCOCCOCCOCCOCC(F)(F)F"
value = "8.6 µg"

[[record]]
structure = "O=C(O)COCCOCCOCC(F)(F)F"
value = "7.1 µg"


Now for a further compound.
Quick one: FPM (fine particle mass, sum of stages 3 to 5) of COCCOCCOCCOCCOCCOCCOCC(=O)O ?
8.7 µg
